The origin of these recorded values is patent US7951772B2.

- Test system: conditioned medium from MCF7/6 mammary carcinoma cells
Square brackets hold non-standard residues; d marks the D form. Peptide text beside a SMILES is read from it. * marks the point of attachment. X1 = COc1cccc2c1C(=O)c1c(O)c3c(c(O)c1C2=O)CC(O)(C(=O)CO)CC3OC1CC(N*)C(O)C(C)O1; pGlu = O=C1CC[CH](C(=O)O)N1
reported-metric: Hydrolysis, MCF-7/6 Conditioned Medium

{"compound": "COc1cccc2c1C(=O)c1c(O)c3c(c(O)c1C2=O)CC(O)(C(C)=O)CC3OC1CC(NC(=O)C(CC(C)C)NC(=O)CNC(=O)C(CC(C)C)NC(=O)CN)C(O)C(C)O1 (stereo not drawn)", "Hydrolysis, MCF-7/6 Conditioned Medium": "+"}
{"compound": "COc1cccc2c1C(=O)c1c(O)c3c(c(O)c1C2=O)CC(O)(C(C)=O)CC3OC1CC(NC(=O)C(CC(C)C)NC(=O)C(C)NC(=O)C(CC(C)C)NC(=O)C(C)NC(=O)CCC(=O)O)C(O)C(C)O1 (stereo not drawn)", "Hydrolysis, MCF-7/6 Conditioned Medium": "−"}
{"compound": "COc1cccc2c1C(=O)c1c(O)c3c(c(O)c1C2=O)CC(O)(C(C)=O)CC3OC1CC(NC(=O)C(CC(C)C)NC(=O)C(C)NC(=O)C(CC(C)C)NC(=O)C(C)NC(=O)C(N)CC(C)C)C(O)C(C)O1 (stereo not drawn)", "Hydrolysis, MCF-7/6 Conditioned Medium": "+"}
{"compound": "COc1cccc2c1C(=O)c1c(O)c3c(c(O)c1C2=O)CC(O)(C(C)=O)CC3OC1CC(NC(=O)C(CC(C)C)NC(=O)C(C)NC(=O)C(CC(C)C)NC(=O)C(C)N)C(O)C(C)O1 (stereo not drawn)", "Hydrolysis, MCF-7/6 Conditioned Medium": "+"}
{"compound": "COc1cccc2c1C(=O)c1c(O)c3c(c(O)c1C2=O)CC(O)(C(=O)CO)CC3OC1CC(NC(=O)C(CC(C)C)NC(=O)C(C)NC(=O)C(CC(C)C)NC(=O)C(C)NC(=O)C2CCC(=O)N2)C(O)C(C)O1 [pGlu-L-Ala-L-Leu-L-Ala-L-Leu-DOX] ([pGlu]ALAL-X1; configuration not given here)", "Hydrolysis, MCF-7/6 Conditioned Medium": "−"}

Switching to the query record.
query: Suppose we examine the compound COc1cccc2c1C(=O)c1c(O)c3c(c(O)c1C2=O)C[C@@](O)(C(C)=O)C[C@@H]3O[C@H]1C[C@H](NC(=O)[C@@H](N)CC(C)C)C(O)[C@H](C)O1 (stereo partly drawn) ; what Hydrolysis, MCF-7/6 Conditioned Medium value has been reported?
result: −
